Values compiled from paper PMC9057277.

Quick reference for pIC50 among some molecules
molecular target: recombinant human COX-2 (Homo sapiens, UniProt P35354); assay: COX Fluorescent Inhibitor Screening Assay Kit, COX-2
Sequence (P35354 18-604): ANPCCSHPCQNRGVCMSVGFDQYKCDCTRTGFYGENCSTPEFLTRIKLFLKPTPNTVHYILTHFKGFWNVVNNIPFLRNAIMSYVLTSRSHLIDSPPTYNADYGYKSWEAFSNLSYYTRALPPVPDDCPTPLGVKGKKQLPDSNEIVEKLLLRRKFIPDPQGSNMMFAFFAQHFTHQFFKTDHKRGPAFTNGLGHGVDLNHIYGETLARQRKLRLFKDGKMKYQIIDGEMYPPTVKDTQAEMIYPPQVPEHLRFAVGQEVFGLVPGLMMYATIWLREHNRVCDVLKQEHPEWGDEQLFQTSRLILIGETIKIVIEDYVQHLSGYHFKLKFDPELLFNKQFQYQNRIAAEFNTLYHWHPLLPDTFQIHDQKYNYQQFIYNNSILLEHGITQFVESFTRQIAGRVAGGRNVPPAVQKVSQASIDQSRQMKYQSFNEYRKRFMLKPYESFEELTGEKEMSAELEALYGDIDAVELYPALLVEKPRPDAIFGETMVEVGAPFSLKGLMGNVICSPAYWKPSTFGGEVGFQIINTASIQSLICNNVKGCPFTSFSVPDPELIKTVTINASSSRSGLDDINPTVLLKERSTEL
FYI, pIC50 means -log10 of a concentration in mol per litre.

Please review the entries below; each comes with its answer.
[[record]]
molecule = "Cc1ccc(-c2cc(CCF)nn2-c2ccc(S(C)(=O)=O)cc2)cc1 [5b]"
measured_attribute = "pIC50"
observed_value = 5.60

[[record]]
molecule = "Cc1ccc(-c2cc(CF)nn2-c2ccc(S(C)(=O)=O)cc2)cc1 [5a]"
measured_attribute = "pIC50"
observed_value = 6.29

[[record]]
molecule = "CS(=O)(=O)c1ccc(-n2nc(CCF)cc2-c2ccccc2)cc1 [5c]"
measured_attribute = "pIC50"
observed_value = 5.30


Continue with the next molecule.
Fill in the blank: the reported pIC50 of [2H]C([2H])(F)c1cc(-c2ccc(C)cc2)n(-c2ccc(S(C)(=O)=O)cc2)n1 [[D2]5a] is ____.
6.01
